Assay: Biodistribution in healthy and SRC bearing rats at 1 h after i.v. injection of radiolabelled compounds
Assay type: in vivo
Conditions: SRC (Swarm Rat Chondrosarcoma) bearing rats, mean ± SD (n = 3)
Protocol: Quantitative biodistribution of radiolabelled compounds was determined in rats: healthy animals as well as rats with primary grade II orthotopic chondrosarcoma at stage Day-30 after induction. […] One hour after injection, animals were then sacrificed by CO2 inhalation, dissected and organs of interest removed, weighed and their radioactivity counted using a gamma counter (Model 1480 Wizard, Perkin Elmer Life Sciences, Boston, USA). […]
assayEndpoint: Tumor (% ID/g)
Give a bare numeral; the unit % ID/g is implied.

Solved cases (3 shown):
CC[N+](CC)(CC)CCCN1CCCNCCNCCCNCC1.[64Cu+2] [^64Cu-5] | 5.2
CC[N+](CC)(CC)CCCN1CCCN(Cc2ccccn2)CCNCCCN(Cc2ccccn2)CC1.[64Cu+2] [^64Cu-30] | 4.2
CC[N+](CC)(CC)CCCN1CCCNCCN(Cc2ccccn2)CCCNCC1.[64Cu+2] [^64Cu-27] | 1.4

Turning to the following molecule.
stdin: Return value of Tumor for input CC[N+](CC)(CC)CCCN1CCNCCNCCNCCNCC1.[64Cu+2] [^64Cu-2] , no commentary.
stdout: 3.5
